These entries and their values trace back to patent US20200024330A1.

target: HIV-1 JR-CSF Env S334A (HIV-1 isolate JR-CSF) (UniProt P20871); assay: cell-based or functional assay
# maps each entry to its Fold IC50 increase relative to wild-type
Output spec: scalar in fold, unitless text.

PGT-125 (antibody, V domains shown) VH: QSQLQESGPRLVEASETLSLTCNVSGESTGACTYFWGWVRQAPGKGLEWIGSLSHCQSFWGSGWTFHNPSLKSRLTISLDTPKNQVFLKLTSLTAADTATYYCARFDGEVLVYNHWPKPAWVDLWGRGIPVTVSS VL: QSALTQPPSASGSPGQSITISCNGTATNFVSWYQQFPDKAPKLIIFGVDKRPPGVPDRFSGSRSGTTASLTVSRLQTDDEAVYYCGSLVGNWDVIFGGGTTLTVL : 0.8

Sure, the documented Fold IC50 increase relative to wild-type for PGT-128 (antibody, V domains shown) VH: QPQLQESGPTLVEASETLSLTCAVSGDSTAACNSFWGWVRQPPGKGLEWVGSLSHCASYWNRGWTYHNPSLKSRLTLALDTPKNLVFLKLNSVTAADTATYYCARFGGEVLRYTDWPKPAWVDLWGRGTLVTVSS VL: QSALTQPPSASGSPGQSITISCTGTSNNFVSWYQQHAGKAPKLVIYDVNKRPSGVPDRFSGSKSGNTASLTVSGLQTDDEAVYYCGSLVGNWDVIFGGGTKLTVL is 1.4
